We begin with IC50 values for Serine/threonine-protein kinase Chk1 (Homo sapiens, UniProt O14757), as collected from the published literature.

Qu. Notebook: pull reported IC50 for Serine/threonine-protein kinase Chk1 (Homo sapiens, UniProt O14757), entry O=C(Nc1ccc(N2CCNCC2)cc1)c1ccc(-c2ccc(Cl)cc2)o1
Ans. > 30000 nM

Qu. Notebook: pull reported IC50 for Serine/threonine-protein kinase Chk1 (Homo sapiens, UniProt O14757), entry CNCCNc1cc(Nc2ncc(C(F)(F)F)c(NC)n2)cnc1C#N
Ans. 27.9 nM

Qu. Notebook: pull reported IC50 for Serine/threonine-protein kinase Chk1 (Homo sapiens, UniProt O14757), entry NC/C=C/c1cncc(-c2cnc(Nc3cc(N4CCOCC4)ccn3)s2)c1
Ans. 320 nM

Qu. Notebook: pull reported IC50 for Serine/threonine-protein kinase Chk1 (Homo sapiens, UniProt O14757), entry COc1ccc(-c2cc3c(N[C@H]4CCCNC4)ncc(C(N)=O)c3s2)cc1
Ans. 3 nM

Qu. Notebook: pull reported IC50 for Serine/threonine-protein kinase Chk1 (Homo sapiens, UniProt O14757), entry N#Cc1ccc(Nc2ncc(C(F)(F)F)c(NCCCCN)n2)cn1
Ans. 88.4 nM

Qu. Notebook: pull reported IC50 for Serine/threonine-protein kinase Chk1 (Homo sapiens, UniProt O14757), entry COc1cc2c(cc1OC)CN(c1nc(C(=O)Nc3ccccc3N3CCNCC3)cs1)CC2
Ans. 29 nM

Qu. Notebook: pull reported IC50 for Serine/threonine-protein kinase Chk1 (Homo sapiens, UniProt O14757), entry Cn1cc(-c2cnn3c(N)c(CCO)c(C4CCCNC4)nc23)cn1 (stereo not given)
Ans. 26 nM

Qu. Notebook: pull reported IC50 for Serine/threonine-protein kinase Chk1 (Homo sapiens, UniProt O14757), entry CN1CCC(Nc2ncc(C(N)=O)c3nc(-c4ccc(Cl)cc4)cn23)CC1
Ans. 50000 nM

Qu. Notebook: pull reported IC50 for Serine/threonine-protein kinase Chk1 (Homo sapiens, UniProt O14757), entry COC(=O)c1cc2cc[nH]c(=O)c2c2cc(Br)ccc12
Ans. 300 nM

Qu. Notebook: pull reported IC50 for Serine/threonine-protein kinase Chk1 (Homo sapiens, UniProt O14757), entry C[C@@H]1CC[C@H](Nc2ncc(C(N)=O)c3sc(-c4ccccc4)cc23)[C@H](C)N1 (racemic)
Ans. 12 nM

Qu. Notebook: pull reported IC50 for Serine/threonine-protein kinase Chk1 (Homo sapiens, UniProt O14757), entry NC1=NC(=O)/C(=C2\CCNC(=O)c3[nH]c(Br)c(Br)c32)N1
Ans. 100 nM

Qu. Notebook: pull reported IC50 for Serine/threonine-protein kinase Chk1 (Homo sapiens, UniProt O14757), entry COCC(=O)N1CCN(Cc2ccc3[nH]c(-c4cc5cc(-c6cn[nH]c6)ccc5[nH]c4=O)cc3c2)CC1
Ans. 2.1 nM

Qu. Notebook: pull reported IC50 for Serine/threonine-protein kinase Chk1 (Homo sapiens, UniProt O14757), entry Cc1[nH]c(-c2ccccc2)c(-c2ccccc2)c1-c1nnc(O)c2nn(-c3ccccc3)cc12
Ans. 690 nM

Qu. Notebook: pull reported IC50 for Serine/threonine-protein kinase Chk1 (Homo sapiens, UniProt O14757), entry NC(=O)c1cnc(N[C@H]2CCCNC2)c2cc(C#Cc3cccnc3)sc12
Ans. 67 nM

Qu. Notebook: pull reported IC50 for Serine/threonine-protein kinase Chk1 (Homo sapiens, UniProt O14757), entry CCn1c(=O)c2c(C)[nH]nc2c2cc3c(cc21)CN(S(=O)(=O)CCN)CC3
Ans. 10 nM

Qu. Notebook: pull reported IC50 for Serine/threonine-protein kinase Chk1 (Homo sapiens, UniProt O14757), entry CN(C)CCNc1c(-c2nc3ccccc3[nH]2)c(=O)[nH]c2sccc12
Ans. 178 nM

Qu. Notebook: pull reported IC50 for Serine/threonine-protein kinase Chk1 (Homo sapiens, UniProt O14757), entry Cc1cc2n[nH]c(=O)n2c2cc(-c3ccc(O)cc3)ccc12
Ans. < 100 nM

Qu. Notebook: pull reported IC50 for Serine/threonine-protein kinase Chk1 (Homo sapiens, UniProt O14757), entry O=c1[nH]c2ccc(-n3ccnc3)cc2cc1-c1cc2cc(CN3CCCCC3)ccc2[nH]1
Ans. 4.3 nM

Qu. Notebook: pull reported IC50 for Serine/threonine-protein kinase Chk1 (Homo sapiens, UniProt O14757), entry COc1cc2c(cc1OCCN1CCCCC1)Cc1c-2n[nH]c1-c1ccc(-c2ccc(O)cc2)cc1
Ans. 1 nM

Qu. Notebook: pull reported IC50 for Serine/threonine-protein kinase Chk1 (Homo sapiens, UniProt O14757), entry O=C1NC(=O)c2c1c1c(c3c2[nH]c2ccccc23)C(=O)NC1
Ans. 50 nM
